Listed here: items and their measured CC50 at 72 h.
assay: Cytotoxicity against human HepG2 cells after 72 hrs by MTT assay; format: cell-based; details: HepG2 cells
QUANTITY NAME: CC50 at 72 h (µM)

>>> print(df.to_string())
                                chem_smiles  value_qualifier  value_measured
0  O=c1cc(-c2ccc(C(F)(F)F)cc2)c2cccc([N+](=O)[O-])c2[nH]1                =            42.7
1  CC(C)(C)OCc1cc(=O)[nH]c2c([N+](=O)[O-])cccc12                =             5.3
2  O=c1cc(C#Cc2ccccc2)c2cccc([N+](=O)[O-])c2[nH]1                =            11.6
3  O=c1cc(-c2ccccc2)c2cccc([N+](=O)[O-])c2[nH]1                =            31.9
4  O=c1cc(-c2ccc(F)cc2)c2cccc([N+](=O)[O-])c2[nH]1                =            36.1
5  COc1cccc(C#Cc2cc(=O)[nH]c3c([N+](=O)[O-])cccc23)c1                >              10
6  O=c1cc(C#CCOc2ccccc2)c2cccc([N+](=O)[O-])c2[nH]1                =             1.8
7  Cc1ccc(-c2cc(=O)[nH]c3c([N+](=O)[O-])cccc23)s1                >            15.6
8  O=c1cc(-c2ccncc2)c2cccc([N+](=O)[O-])c2[nH]1                =            15.7
9     O=c1cc(Br)c2cccc([N+](=O)[O-])c2[nH]1                =            27.1
